These measurements were taken from patent US8680012B2.

Tested on: Amaranthus retroflexus (AMARE)
Assay: Example B post-emergence herbicidal activity, glasshouse pot test
Assay type: in vivo
Settings: 312 h, rate 250 g/ha, evaluated after 13 days, read-out: Post-emergence activity AMARE (100=total damage to plant; 0=no damage to plant)
The entries below come with measured pest or weed control at 250 g/ha values attached.
readout-label: pest or weed control at 250 g/ha

> print(dat)
                                    compound                   target.system  reported.value
 1  CCc1ccc(-c2ccc(Cl)c(F)c2)cc1C1=C(O)[C@]2(C)O[C@@H](CC2COC)C1=O (stereo partly drawn)  Amaranthus retroflexus (AMARE)              0%
 2  CCc1ccc(-c2ccc(Cl)cc2Cl)cc1C1=C(O)C(C)(C)S(=O)(=O)C(C)(C)C1=O  Amaranthus retroflexus (AMARE)             20%
 3  Cc1cc(C)c(-c2ccc(Cl)c(F)c2)c(C)c1C1=C(O)C(C)(C)OC(C)(C)C1=O  Amaranthus retroflexus (AMARE)              0%
 4  CCc1ccc(-c2ccc(Cl)cc2Cl)cc1C1=C(O)[C@]2(C)O[C@@H](CC2COC)C1=O (stereo partly drawn)  Amaranthus retroflexus (AMARE)             70%
 5  CCc1ccc(-c2ccc(Cl)cc2OC)cc1C1=C(O)C(C)(C)OC(C)(C)C1=O  Amaranthus retroflexus (AMARE)             10%
 6  CC[C@]12CC[C@H](O1)C(=O)C(c1cc(-c3ccc(Cl)cc3)ccc1C)=C2O (single isomer, unassigned)  Amaranthus retroflexus (AMARE)              0%
 7  CCc1ccc(-c2ccc(Cl)nc2Cl)cc1C1=C(O)C(C)(C)OC(C)(C)C1=O  Amaranthus retroflexus (AMARE)              0%
 8  Cc1ccc(-c2cnn(Cc3ccccc3)c2)cc1C1=C(O)C(C)(C)OC(C)(C)C1=O  Amaranthus retroflexus (AMARE)              0%
 9  CCC(=O)OC1=C(c2cc(-c3ccc(Cl)cc3Cl)ccc2CC)C(=O)C(C)(C)OC1(C)C  Amaranthus retroflexus (AMARE)              0%
10  CCc1ccc(-c2ccc(Cl)cn2)cc1C1=C(O)C(C)(C)OC(C)(C)C1=O  Amaranthus retroflexus (AMARE)              0%
11  CCc1ccc(-c2ccc(Cl)c(C#N)c2)cc1C1=C(O)C(C)(C)C(=O)C(C)(C)C1=O  Amaranthus retroflexus (AMARE)              0%
12  CCc1ccc(-c2ccc(Cl)c(C#N)c2)cc1C1=C(O)C(C)(C)OC(C)(C)C1=O  Amaranthus retroflexus (AMARE)             90%
13  CCc1ccc(-c2ccc(Cl)c(F)c2Cl)cc1C1=C(O)C(C)(C)OC(C)(C)C1=O  Amaranthus retroflexus (AMARE)             60%
14  CCc1ccc(-c2ccc(Cl)cc2)cc1C1=C(O)C(C)(C)OC(C)(COC)C1=O (stereo not drawn)  Amaranthus retroflexus (AMARE)              0%
15  CCc1ccc(-c2ccc(Cl)cc2Cl)cc1C1=C(OC(=O)COC)C(C)(C)OC(C)(C)C1=O  Amaranthus retroflexus (AMARE)              0%

---

Test system: Amaranthus retroflexus (AMARE)
Test: Example B post-emergence herbicidal activity, glasshouse pot test
Type: in vivo
Conditions: 312 h, rate 250 g/ha, evaluated after 13 days, read-out: Post-emergence activity AMARE (100=total damage to plant; 0=no damage to plant)
readout-label: pest or weed control at 250 g/ha (%)

> print(dat)
                                   compound  unit.annotation  reported.value
1  CCc1ccc(-c2ccc(Cl)nc2C)cc1C1=C(O)C(C)(C)C(=O)C(C)(C)C1=O [Compound B-30]                %               0
2  CCc1ccc(-c2ccc(Cl)cc2)cc1C1=C(O)[C@@]2(CC)CC[C@H](O2)C1=O [Compound A-79]                %               0
3  CCc1ccc(-c2ccc(Cl)nc2)cc1C1=C(OC(C)=O)C(C)(C)OC(C)(C)C1=O [Compound D-22]                %               0
4  C#Cc1ccc(-c2ccc(CC)c(C3=C(O)C(C)(C)OC(C)(C)C3=O)c2)cc1 [Compound A-98]                %              30
5  CCc1ccc(-c2ccc(Cl)nc2Cl)cc1C1=C(O)C(C)(C)C(=O)C(C)(C)C1=O [Compound B-29]                %              20
6  Cc1cc(C)c(-c2ccc(Cl)cc2)c(C)c1C1=C(O)C(C)(C)OC(C)(C)C1=O [Compound A-92]                %               0
7  CCc1ccc(-c2ccc(C(F)F)cc2)cc1C1=C(O)C(C)(C)OC(C)(C)C1=O [Compound A-147]                %               0
8  CCc1ccc(-c2ccc(Cl)c(Cl)c2)cc1C1=C(O)[C@]2(C)O[C@@H](CC2COC)C1=O (some centres unmarked) [Compound A-130]                %               0

---

Test system: Avena fatua (AVEFA)
Test: Example B pre-emergence herbicidal activity, glasshouse pot test
Format: in vivo
Settings: 312 h, rate 1000 g/ha, evaluated after 13 days, read-out: Pre-emergence activity AVEFA (100=total damage to plant; 0=no damage to plant)
readout-label: pest or weed control at 1000 g/ha

> print(dat)
                                   molecule  reported.value
1  CCc1ccc(-c2ccc(Cl)cc2)cc1C1=C(OC(=O)OCC(C)C)C(C)(C)OC(C)(C)C1=O [Compound D-14]             20%
2  Cc1ccc(-c2ccc(F)c(F)c2)cc1C1=C(O)C(C)(C)OC(C)(C)C1=O [Compound A-24]             60%
3  Cc1ccc(-c2ccc(Cl)cc2)cc1C1=C(O)C2(CCOCC2)OCC1=O (single isomer, unassigned) [Compound A-37]             20%

---

System: Avena fatua (AVEFA)
Assay: Example B pre-emergence herbicidal activity, glasshouse pot test
Assay type: in vivo
Conditions: 312 h, rate 1000 g/ha, evaluated after 13 days, read-out: Pre-emergence activity AVEFA (100=total damage to plant; 0=no damage to plant)
Each item that follows carries a reported pest or weed control at 1000 g/ha.
readout-label: pest or weed control at 1000 g/ha

> print(dat)
                                    compound                      readout.label  reported.value
 1  Cc1ccc(-c2cccc(C#N)c2)cc1C1=C(O)C(C)(C)OC(C)(C)C1=O  pest or weed control at 1000 g/ha             20%
 2  Cc1ccc(-c2cc(F)c(F)c(F)c2)cc1C1=C(O)C(C)(C)OC(C)(C)C1=O  pest or weed control at 1000 g/ha              0%
 3  CCOC(=O)OC1=C(c2cc(-c3ccc(Cl)cc3)ccc2CC)C(=O)C(C)(C)OC1(C)C  pest or weed control at 1000 g/ha             20%
 4  Cc1ccc(-c2ccc(Cl)nc2C)cc1C1=C(O)C(C)(C)OC(C)(C)C1=O  pest or weed control at 1000 g/ha             40%
 5  CCc1ccc(-c2ccc(Cl)cc2)cc1C1=C(OC(=O)C(C)CC)C(C)(C)OC(C)(C)C1=O (stereo not drawn)  pest or weed control at 1000 g/ha              0%
 6  Cc1ccc(-c2ccc(Cl)cc2)cc1C1=C(O)[C@@]2(C)CC[C@H](O2)C1=O (single isomer, unassigned)  pest or weed control at 1000 g/ha             70%
 7  CCC(=O)OC1=C(c2cc(-c3ccc(Cl)cc3)ccc2CC)C(=O)C(C)(C)OC1(C)C  pest or weed control at 1000 g/ha              0%
 8  Cc1ccc(-c2ccc(F)cc2F)cc1C1=C(O)C(C)(C)OC(C)(C)C1=O  pest or weed control at 1000 g/ha             60%
 9  CCc1ccc(-c2ccc(Cl)cc2)cc1C1=C(O)[C@@]2(C)CC[C@H](O2)C1=O (single isomer, unassigned)  pest or weed control at 1000 g/ha             80%
10  CCc1ccc(-c2ccc(Cl)cc2)cc1C1=C(OC(=O)OC(C)C)C(C)(C)OC(C)(C)C1=O  pest or weed control at 1000 g/ha              0%
11  CCc1ccc(-c2ccc(Cl)cc2)cc1C1=C(O)C(C)(C)OC(C)C1=O (single isomer, unassigned)  pest or weed control at 1000 g/ha             80%
12  Cc1ccc(-c2ccc(Cl)cc2)cc1C1=C(O)C(C)(C)C(=O)C(C)(C)C1=O  pest or weed control at 1000 g/ha              0%
13  C#CCOC(=O)OC1=C(c2cc(-c3ccc(Cl)cc3)ccc2CC)C(=O)C(C)(C)OC1(C)C  pest or weed control at 1000 g/ha             60%
14  CCc1ccc(-c2ccc(Cl)cc2)cc1C1=C(OC(=O)CCOC)C(C)(C)OC(C)(C)C1=O  pest or weed control at 1000 g/ha             50%
15  CCc1ccc(-c2ccc(Cl)cc2)cc1C1=C(OC(C)=O)C(C)(C)OC(C)(C)C1=O  pest or weed control at 1000 g/ha             30%
